# assay-info: ARIADME phase I pharmacokinetics/bioavailability study
# Assay type: in vivo, human
# measurement-setup: male, human, plasma, po, 300 mg, absolute bioavailability, single 300 mg oral solution, fasted
value-kind: bioavailability

| compound | value-kind | result |
| --- | --- | --- |
| CC(O)c1cc(C(=O)N[C@@H](C)Cn2ccc(-c3ccc(C#N)c(Cl)c3)n2)[nH]n1 (stereo partly shown) [Darolutamide] | bioavailability | 98.9% |

----------
tmax values for the compounds below.
# Format: in vivo, human
# measurement-setup: Day 1 (single dose) 600 mg oral with food; median (range)

| compound | tmax |
| --- | --- |
| CC(=O)c1cc(C(=O)N[C@@H](C)Cn2ccc(-c3ccc(C#N)c(Cl)c3)n2)[nH]n1 [Keto-darolutamide, keto-darolutamide] | 4.00 (2.50–6.02) h |
| C[C@H](O)c1cc(C(=O)N[C@@H](C)Cn2ccc(-c3ccc(C#N)c(Cl)c3)n2)n[nH]1 [(S,S)-darolutamide] | 5.98 (2.50–8.00) h |
| CC(O)c1cc(C(=O)N[C@@H](C)Cn2ccc(-c3ccc(C#N)c(Cl)c3)n2)[nH]n1 (stereo partly shown) [Darolutamide] | 5.97 (2.50–7.95) h |
| C[C@@H](Cn1ccc(-c2ccc(C#N)c(Cl)c2)n1)NC(=O)c1cc([C@@H](C)O)[nH]n1 [(S,R)-darolutamide] | 3.97 (1.02–6.02) h |

----------
# Assay type: in vivo, human
# measurement-setup: 600 mg BID with food
value-kind: RLIN, linearity factor (ratio of multiple-dose AUC0–12 to single-dose AUC)

| compound | number |
| --- | --- |
| CC(O)c1cc(C(=O)N[C@@H](C)Cn2ccc(-c3ccc(C#N)c(Cl)c3)n2)[nH]n1 (stereo partly shown) [Darolutamide] | 1.1 |
| CC(=O)c1cc(C(=O)N[C@@H](C)Cn2ccc(-c3ccc(C#N)c(Cl)c3)n2)[nH]n1 [Keto-darolutamide, keto-darolutamide] | 1.2 |
| C[C@H](O)c1cc(C(=O)N[C@@H](C)Cn2ccc(-c3ccc(C#N)c(Cl)c3)n2)n[nH]1 [(S,S)-darolutamide] | 1.1 |
| C[C@@H](Cn1ccc(-c2ccc(C#N)c(Cl)c2)n1)NC(=O)c1cc([C@@H](C)O)[nH]n1 [(S,R)-darolutamide] | 0.9 |

----------
# assay-info: ARIADME phase I pharmacokinetics/bioavailability study
# Type: in vivo, human
# measurement-setup: male, human, plasma, po, 300 mg, Cmax, healthy male subjects, single 300 mg oral tablet, fasted; geometric mean (CV%)

| compound | result-units | Cmax |
| --- | --- | --- |
| CC(O)c1cc(C(=O)N[C@@H](C)Cn2ccc(-c3ccc(C#N)c(Cl)c3)n2)[nH]n1 (stereo partly shown) [Darolutamide] | ng/mL | 800 |

----------
# assay-info: ARIADME phase I pharmacokinetics/bioavailability study
# Format: in vivo, human
# measurement-setup: male, human, plasma, po, 300 mg, F (absolute oral bioavailability), single 300 mg oral 14C-solution, fasted; geometric mean (CV%)

| compound | result-units | bioavailability |
| --- | --- | --- |
| CC(O)c1cc(C(=O)N[C@@H](C)Cn2ccc(-c3ccc(C#N)c(Cl)c3)n2)[nH]n1 (stereo partly shown) [Darolutamide] | % | 98.9 |

----------
# assay-info: ARIADME phase I pharmacokinetics/bioavailability study
# Format: in vivo, human
# measurement-setup: male, human, plasma, po, 300 mg, t½, single 300 mg oral tablet, fasted; geometric mean (CV%)
value-kind: half-life (h)

| compound | value-kind | number |
| --- | --- | --- |
| CC(O)c1cc(C(=O)N[C@@H](C)Cn2ccc(-c3ccc(C#N)c(Cl)c3)n2)[nH]n1 (stereo partly shown) [Darolutamide] | half-life | 15.3 |
